Source: PubChem BioAssay

Hi there, I'd appreciate the recorded z-score for every entry that follows.
Test: RPMI8226 myeloma cell viability, profiling panel, resazurin fluorescence, basal, 24 h, PK04 Diversity Set (AID 1180);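 note: RPMI8826 multiple myeloma cell line at 5000 cells per well; test concentration not given here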
Settings: higher = more signal
Answers are plain numbers.

compound="C=CCOCC1CN2[C@@H](CC[C@@H](C)[C@@H]2c2ccc(Br)cc2)C(=O)O1 (some centres undefined)" value_observed=1.49
compound="CCOC(=O)[C@H](CC(C)C)NC(=O)CCC1CC(OC(=O)NCCc2ccc(F)cc2)CC2(CCCC(COC(=O)NCCCN3CCCC3=O)O2)O1 (some centres undefined)" value_observed=1.32
compound=COc1cccc([C@H]2Oc3ccc(OC)cc3C(=NOCC[C@@H]3C=C[C@H](OC(C)=O)[C@@H](COC(C)=O)O3)[C@@H]2O)c1 value_observed=-0.583

Here is the next item to consider.
Requested read-out: z-score. Entry: "COC(=O)[C@@H]1CC[C@H](C)[C@@H](c2ccc(C)cc2)N1C(=O)c1ccc(C=NOC[C@H]2O[C@H](c3ccccc3)C=C[C@@H]2Oc2ccc(OC)cc2)cc1" 0.539
